Molecular target: ERCC1-XPF endonuclease (Homo sapiens, UniProt P07992+Q92889)
Sequence (Q92889 whole entry): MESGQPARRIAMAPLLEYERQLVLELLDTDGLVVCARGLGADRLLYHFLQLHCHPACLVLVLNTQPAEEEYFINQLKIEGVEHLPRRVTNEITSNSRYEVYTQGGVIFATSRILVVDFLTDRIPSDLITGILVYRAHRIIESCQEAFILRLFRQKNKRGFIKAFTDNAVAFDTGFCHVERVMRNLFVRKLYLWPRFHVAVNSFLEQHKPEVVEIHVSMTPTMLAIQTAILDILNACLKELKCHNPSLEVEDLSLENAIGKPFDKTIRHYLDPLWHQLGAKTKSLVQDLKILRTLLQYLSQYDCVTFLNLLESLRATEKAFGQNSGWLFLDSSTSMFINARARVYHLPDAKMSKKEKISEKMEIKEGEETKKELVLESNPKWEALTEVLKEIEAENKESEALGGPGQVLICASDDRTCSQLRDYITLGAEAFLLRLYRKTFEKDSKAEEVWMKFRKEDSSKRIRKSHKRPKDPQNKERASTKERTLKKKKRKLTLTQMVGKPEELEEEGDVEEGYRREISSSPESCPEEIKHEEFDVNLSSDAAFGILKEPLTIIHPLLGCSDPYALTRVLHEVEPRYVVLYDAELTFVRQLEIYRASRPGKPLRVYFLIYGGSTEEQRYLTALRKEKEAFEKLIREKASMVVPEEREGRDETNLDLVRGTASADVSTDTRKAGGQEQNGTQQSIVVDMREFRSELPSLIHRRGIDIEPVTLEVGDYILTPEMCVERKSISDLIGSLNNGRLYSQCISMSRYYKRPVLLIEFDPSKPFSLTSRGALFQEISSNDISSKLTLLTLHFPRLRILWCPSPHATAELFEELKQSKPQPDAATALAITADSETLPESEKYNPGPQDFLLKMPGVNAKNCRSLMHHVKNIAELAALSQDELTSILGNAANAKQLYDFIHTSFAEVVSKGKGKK
Sequence (P07992 whole entry): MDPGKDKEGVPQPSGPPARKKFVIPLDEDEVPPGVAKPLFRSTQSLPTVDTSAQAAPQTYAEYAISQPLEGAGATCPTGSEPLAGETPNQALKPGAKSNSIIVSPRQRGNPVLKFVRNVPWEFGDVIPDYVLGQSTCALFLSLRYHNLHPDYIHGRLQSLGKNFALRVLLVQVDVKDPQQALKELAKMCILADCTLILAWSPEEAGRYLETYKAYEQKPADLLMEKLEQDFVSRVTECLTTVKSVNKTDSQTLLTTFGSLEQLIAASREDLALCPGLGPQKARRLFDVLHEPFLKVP
Experiment: fluorescence based DNA incision assay with purified ERCC1-XPF
Assay type: biochemical
Settings: purified enzyme, forked fluorescent DNA substrate; read-out: IC50 (50% inhibition) in ERCC1-XPF fluorescence assay
pIC50: −log10 of the molar value.
measurement label: pIC50

molecule="Cc1ccc(S(=O)(=O)Oc2cc(S(=O)(=O)O)cc3cc(S(=O)(=O)O)cc(N)c23)cc1 [compound 1]" result="6.30 to 6.40"

====

Target: ERCC1-XPF (Homo sapiens, UniProt P07992+Q92889)
Sequence (Q92889 whole entry): as the sequence (Q92889 whole entry) above
Sequence (P07992 whole entry): as the sequence (P07992 whole entry) above
Assay: radiolabeled DNA incision assay (radiometric inhibition assay)
Settings: read-out: 50% inhibition in radiometric inhibition assay
pIC50: −log10 of the molar value.
measurement label: pIC50

molecule="Cc1ccc(S(=O)(=O)Oc2cc(S(=O)(=O)O)cc3cc(S(=O)(=O)O)cc(N)c23)cc1 [compound 1]" measurement_label=pIC50 result="6.30 to 6.40"

These measurements were taken from patent US9821008B2.
